measured target: Calmodulin-1 (Homo sapiens) (UniProt P0DP23)
assay: calcium-bound CALM1 binders on microarrays, profiling panel, artefact control for SMM control-protein annotation, biochemical, small-molecule microarray, Cy5-labelled CALM1, plus calcium (AID 1112);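 further: score merges spot fluorescence with signal to noise from triplicate slides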
condition parameters: Cy5-CALM1 binding fluorescence, higher = more signal
readout label: composite z-score
One number for each entry.

Solved entries:
C=CCC(OC(C)=O)[C@@H]1[C@@H](N(Cc2cc3ccccc3o2)C(=O)c2ccc(-c3ccccc3)cc2)c2cc(OCCCO)ccc2N1C(=O)Cc1ccc(OC)cc1 (some centres undefined) | 0.464
CC1(C)C(=O)C(c2ccccc2)=C2CN3C(=O)N(CCc4ccccc4)C(=O)C3(Cc3ccc(C(F)(F)F)cc3)C=C21 (centres undefined) | 0.858
C=C(/C(=C/C[C@@H](OC(=O)c1ccncc1)c1cccc(OCCO)c1)c1cnc2ccccc2c1)C(C)C | 0.11

# context switch: different molecule, same composite z-score
Problem: Item COc1ccc(C(O)C2C=CC3C(=O)N(c4ccccc4)C(=O)C3N2Nc2ccc(C(C)C)cc2)c2ccccc12 (centres undefined) with Calmodulin-1 (Homo sapiens) (UniProt P0DP23) - composite z-score?
Solution: 0.922
